Catalogue of EC50 values
# System: HCV genotype 1b (Con1) replicon in HUH-7 cells
# assay.info: HCV replicon luciferase reporter assay, genotype 1b
# Assay type: cell-based
# condition.description: Hepatitis C virus, 72 h, genotype 1b replicon, 3 days incubation, read-out: LE_1b (EC50, range)
measure: EC50

INSERT INTO assay_data (structure_string, measured_value) VALUES
  ('COc1cc(F)cc2c(O[C@@H]3C[C@H]4C(=O)N[C@]5(C(=O)NS(=O)(=O)C6(CF)CC6)C[C@H]5/C=C\CC[C@@H](C)O[C@@H](C)[C@H](NC(=O)OC(C)(C)C(F)F)C(=O)N4C3)nccc12', '1.01 to 5 nM'),
  ('CC[C@@H]1O[C@H](C)CC/C=C\[C@@H]2C[C@@]2(C(=O)NS(=O)(=O)C2(C)CC2)NC(=O)[C@@H]2C[C@@H](Oc3nc4c(c5cc(OC)ccc35)CCCO4)CN2C(=O)[C@H]1NC(=O)OC(C)(C)C(C)(F)F', '0.1 to 0.5 nM'),
  ('COc1ccc2c(O[C@@H]3C[C@H]4C(=O)N[C@]5(C(=O)NS(=O)(=O)C6(C)CC6)C[C@H]5/C=C\CC[C@@H](C)O[C@@H](C)[C@H](NC(=O)OC(C)(C)C)C(=O)N4C3)nccc2c1', '1.01 to 5 nM'),
  ('COc1cnc(O[C@@H]2C[C@H]3C(=O)N[C@]4(C(=O)NS(=O)(=O)C5(C)CC5)C[C@H]4/C=C\CC[C@@H](C)O[C@@H](C)[C@H](NC(=O)OC(C)(C)C(F)(F)F)C(=O)N3C2)c2cc(F)ccc12', '0.1 to 0.5 nM');
